Examples of compounds with documented IC50 follow.
Tested on: A549
ASSAY PROCEDURE: Antiproliferative activity against human A549 cells after 48 hrs by SRB assay
Format: functional, cell-based
ASSAY CONDITIONS: A549, 48 h
Quick note: give the figure in nM, leave out the unit.

Examples with answers:
{"CHEMICAL STRUCTURE": "COc1ccc(OC)c(/C=C/C(=O)C(=Cc2ccc(O)c(OC)c2)C(=O)/C=C/c2cc(OC)ccc2OC)c1", "IC50, nM": 190}
{"CHEMICAL STRUCTURE": "COc1cc(C=C(C(=O)/C=C/c2cccc(OC)c2OC)C(=O)/C=C/c2cccc(OC)c2OC)cc(OC)c1O", "IC50, nM": 240}
{"CHEMICAL STRUCTURE": "COc1ccc(OC)c(/C=C/C(=O)C(=Cc2ccc(OC)c(OC)c2)C(=O)/C=C/c2cc(OC)ccc2OC)c1", "IC50, nM": 400}

Using the record for COc1cccc(/C=C/C(=O)C(=Cc2ccc(OC)c(OC)c2OC)C(=O)/C=C/c2cccc(OC)c2OC)c1OC , report its IC50.
260

Using the record for COc1ccc(OC)c(/C=C/C(=O)/C=C(O)/C=C/c2cc(OC)ccc2OC)c1 , report its IC50.
16300

Using the record for COc1ccc(/C=C/C(=O)C(=Cc2ccc(O)c(OC)c2)C(=O)/C=C/c2ccc(OC)cc2OC)c(OC)c1 , report its IC50.
590

Using the record for COc1ccc(C=C(C(=O)/C=C/c2cccc(OC)c2OC)C(=O)/C=C/c2cccc(OC)c2OC)cc1OC , report its IC50.
170

Using the record for COc1cccc(C=C(C(=O)/C=C/c2cccc(OC)c2OC)C(=O)/C=C/c2cccc(OC)c2OC)c1OC , report its IC50.
320

---

System: A549
ASSAY PROCEDURE: Antiproliferative activity against human A549 cells after 48 hrs by SRB assay
Format: functional, cell-based
ASSAY CONDITIONS: A549, 48 h
OUTCOME MEASURE: pIC50
In simple prose, pIC50 is minus the logarithm base ten of a concentration in moles per litre.

Examples with answers:
{"CHEMICAL STRUCTURE": "COc1cc(/C=C/C(=O)CC(=O)/C=C/c2ccc(O)c(OC)c2)ccc1O", "OBSERVED RESULT": 4.94}
{"CHEMICAL STRUCTURE": "COc1cc(C=C(C(=O)/C=C/c2cccc(OC)c2OC)C(=O)/C=C/c2cccc(OC)c2OC)ccc1O", "OBSERVED RESULT": 6.89}
{"CHEMICAL STRUCTURE": "COc1ccc(C=C(C(=O)/C=C/c2cccc(OC)c2OC)C(=O)/C=C/c2cccc(OC)c2OC)cc1O", "OBSERVED RESULT": 6.57}
{"CHEMICAL STRUCTURE": "COc1cc(OC)c(/C=C/C(=O)C(=Cc2ccc(O)c(OC)c2)C(=O)/C=C/c2c(OC)cc(OC)cc2OC)c(OC)c1", "OBSERVED RESULT": 6.24}
{"CHEMICAL STRUCTURE": "COc1cc(OC)c(C=C(C(=O)/C=C/c2cccc(OC)c2OC)C(=O)/C=C/c2cccc(OC)c2OC)c(OC)c1", "OBSERVED RESULT": 6.20}

Using the record for COc1cc(OC)c(/C=C/C(=O)C(=Cc2cc(OC)c(O)c(OC)c2)C(=O)/C=C/c2c(OC)cc(OC)cc2OC)c(OC)c1 , report its pIC50.
6.47

Using the record for COc1ccc(/C=C/C(=O)/C=C(O)/C=C/c2ccc(OC)cc2OC)c(OC)c1 , report its pIC50.
4.35

Using the record for COc1cc(OC)c(/C=C/C(=O)C(=Cc2cc(Br)c(O)c(OC)c2)C(=O)/C=C/c2c(OC)cc(OC)cc2OC)c(OC)c1 , report its pIC50.
6.14

---

ASSAY PROCEDURE: Inhibition of TNFalpha-induced NF-kappaB translocation in human A549 cells incubated at 37 degC for 30 mins by high content analysis based immunofluorescence assay
Assay type: cell-based
ASSAY CONDITIONS: A549, 0.5 h
The label is yes (1) for IC50 below 3 µM and no (0) for IC50 equal to or exceeding 3 µM.

Check out these entries, answers already filled in.
{"MOLECULE": "COc1ccc(/C=C/C(=O)C(=Cc2cc(OC)c(O)c(OC)c2)C(=O)/C=C/c2ccc(OC)cc2OC)c(OC)c1", "CLASS NAME": "no (0)"}
{"MOLECULE": "COc1ccc(OC)c(/C=C/C(=O)C(=Cc2ccc(OC)c(OC)c2)C(=O)/C=C/c2cc(OC)ccc2OC)c1", "CLASS NAME": "no (0)"}
{"MOLECULE": "COc1ccc(/C=C/C(=O)C(=Cc2ccc(OC)c(O)c2)C(=O)/C=C/c2ccc(OC)cc2OC)c(OC)c1", "CLASS NAME": "no (0)"}
{"MOLECULE": "COc1cccc(/C=C/C(=O)C(=Cc2ccc(O)c(F)c2)C(=O)/C=C/c2cccc(OC)c2OC)c1OC", "CLASS NAME": "no (0)"}
{"MOLECULE": "COc1cccc(/C=C/C(=O)C(=Cc2ccc(F)cc2)C(=O)/C=C/c2cccc(OC)c2OC)c1OC", "CLASS NAME": "yes (1)"}
{"MOLECULE": "COc1ccc(OC)c(/C=C/C(=O)/C=C(O)/C=C/c2cc(OC)ccc2OC)c1", "CLASS NAME": "no (0)"}

Lab note: confirm whether the reported IC50 for this molecule is below 3 µM, equality not counting. molecule: COc1ccc(OC)c(/C=C/C(=O)C(=Cc2ccc(OC)c(O)c2)C(=O)/C=C/c2cc(OC)ccc2OC)c1
yes (1)

Lab note: confirm whether the reported IC50 for this molecule is below 3 µM, equality not counting. molecule: COc1cccc(/C=C/C(=O)/C=C(O)/C=C/c2cccc(OC)c2OC)c1OC
no (0)

Lab note: confirm whether the reported IC50 for this molecule is below 3 µM, equality not counting. molecule: COc1ccc(OC)c(/C=C/C(=O)C(=Cc2ccc(O)c(OC)c2)C(=O)/C=C/c2cc(OC)ccc2OC)c1
yes (1)

---

System: SW480
ASSAY PROCEDURE: Antiproliferative activity against human SW480 cells after 48 hrs by SRB assay
Type: functional, cell-based
ASSAY CONDITIONS: SW480, 48 h
OUTCOME MEASURE: pIC50
In simple prose, pIC50 is minus the logarithm base ten of a concentration in moles per litre.

Examples with answers:
{"COMPOUND": "COc1ccc(/C=C/C(=O)C(=Cc2ccc(O)c(F)c2)C(=O)/C=C/c2ccc(OC)cc2OC)c(OC)c1", "SYSTEM UNDER TEST": "SW480", "pIC50": 5.47}
{"COMPOUND": "COc1ccc(C=C(C(=O)/C=C/c2cccc(OC)c2OC)C(=O)/C=C/c2cccc(OC)c2OC)cc1O", "SYSTEM UNDER TEST": "SW480", "pIC50": 6.49}
{"COMPOUND": "COc1ccc(OC)c(/C=C/C(=O)C(=Cc2cc(OC)c(O)c(OC)c2)C(=O)/C=C/c2cc(OC)ccc2OC)c1", "SYSTEM UNDER TEST": "SW480", "pIC50": 6.30}
{"COMPOUND": "COc1cccc(/C=C/C(=O)/C=C(O)/C=C/c2cccc(OC)c2OC)c1OC", "SYSTEM UNDER TEST": "SW480", "pIC50": 4.92}
{"COMPOUND": "COc1cccc(/C=C/C(=O)C(=Cc2ccc(O)c(F)c2)C(=O)/C=C/c2cccc(OC)c2OC)c1OC", "SYSTEM UNDER TEST": "SW480", "pIC50": 6.48}
{"COMPOUND": "COc1cc(OC)c(/C=C/C(=O)C(=Cc2cc(OC)c(O)c(OC)c2)C(=O)/C=C/c2c(OC)cc(OC)cc2OC)c(OC)c1", "SYSTEM UNDER TEST": "SW480", "pIC50": 6.01}
{"COMPOUND": "COc1cc(C=C(C(=O)/C=C/c2cccc(OC)c2OC)C(=O)/C=C/c2cccc(OC)c2OC)ccc1O", "SYSTEM UNDER TEST": "SW480", "pIC50": 6.37}
{"COMPOUND": "COc1ccc(C=C(C(=O)/C=C/c2cccc(OC)c2OC)C(=O)/C=C/c2cccc(OC)c2OC)cc1OC", "SYSTEM UNDER TEST": "SW480", "pIC50": 6.39}

Using the record for COc1cc(OC)c(/C=C/C(=O)C(=Cc2ccc(O)c(OC)c2)C(=O)/C=C/c2c(OC)cc(OC)cc2OC)c(OC)c1 , report its pIC50.
5.83

Using the record for COc1ccc(OC)c(/C=C/C(=O)C(=Cc2ccc(O)c(OC)c2)C(=O)/C=C/c2cc(OC)ccc2OC)c1 , report its pIC50.
6.39

Using the record for COc1ccc(OC)c(/C=C/C(=O)C(=Cc2ccc(OC)c(O)c2)C(=O)/C=C/c2cc(OC)ccc2OC)c1 , report its pIC50.
5.95

Using the record for COc1cc(C=C(C(=O)/C=C/c2cccc(OC)c2OC)C(=O)/C=C/c2cccc(OC)c2OC)cc(Br)c1O , report its pIC50.
6.59

Using the record for COc1cc(/C=C/C(=O)CC(=O)/C=C/c2ccc(O)c(OC)c2)ccc1O [CURCUMIN] , report its pIC50.
4.99

All figures here come from ChEMBL document CHEMBL2062524.
